Measured values drawn from paper PMC12624743 for this set.

Target: N. gonorrhoeae topoisomerase IV ParC^D86N (Neisseria gonorrhoeae, UniProt P48374, D86N)
Construct: His
Assay: DNA cleavage assay, ParC^D86N topoisomerase IV
Details: ParC D86N topoisomerase IV; read-out: CC50, single-stranded DNA cleavage
observation_type: EC50

// query EC50 value for entry O=c1ccc2ncc(=O)n3c2n1C[C@H]3CN1CCC(NCc2cc3c(cn2)OCCC3)CC1
// result > 50 µM

---

Molecular target: N. gonorrhoeae topoisomerase IV ParC^S87N (Neisseria gonorrhoeae, UniProt P48374, S87N)
Assay: Topoisomerase IV-catalyzed DNA decatenation assay, ParC^S87N
observation_type: pIC50
Give bare numbers, as −log10 of the molar value.

// query Notebook: pull reported pIC50 for N. gonorrhoeae topoisomerase IV ParC^S87N (Neisseria gonorrhoeae, UniProt P48374, S87N), entry O=c1ccc2ncc(=O)n3c2n1C[C@H]3CN1CCC(NCc2cc3c(cn2)OCCC3)CC1
// result 6.10

---

Biological target: WT N. gonorrhoeae gyrase (Neisseria gonorrhoeae, UniProt P48371)
Construct: His
Sequence (P48371 whole entry): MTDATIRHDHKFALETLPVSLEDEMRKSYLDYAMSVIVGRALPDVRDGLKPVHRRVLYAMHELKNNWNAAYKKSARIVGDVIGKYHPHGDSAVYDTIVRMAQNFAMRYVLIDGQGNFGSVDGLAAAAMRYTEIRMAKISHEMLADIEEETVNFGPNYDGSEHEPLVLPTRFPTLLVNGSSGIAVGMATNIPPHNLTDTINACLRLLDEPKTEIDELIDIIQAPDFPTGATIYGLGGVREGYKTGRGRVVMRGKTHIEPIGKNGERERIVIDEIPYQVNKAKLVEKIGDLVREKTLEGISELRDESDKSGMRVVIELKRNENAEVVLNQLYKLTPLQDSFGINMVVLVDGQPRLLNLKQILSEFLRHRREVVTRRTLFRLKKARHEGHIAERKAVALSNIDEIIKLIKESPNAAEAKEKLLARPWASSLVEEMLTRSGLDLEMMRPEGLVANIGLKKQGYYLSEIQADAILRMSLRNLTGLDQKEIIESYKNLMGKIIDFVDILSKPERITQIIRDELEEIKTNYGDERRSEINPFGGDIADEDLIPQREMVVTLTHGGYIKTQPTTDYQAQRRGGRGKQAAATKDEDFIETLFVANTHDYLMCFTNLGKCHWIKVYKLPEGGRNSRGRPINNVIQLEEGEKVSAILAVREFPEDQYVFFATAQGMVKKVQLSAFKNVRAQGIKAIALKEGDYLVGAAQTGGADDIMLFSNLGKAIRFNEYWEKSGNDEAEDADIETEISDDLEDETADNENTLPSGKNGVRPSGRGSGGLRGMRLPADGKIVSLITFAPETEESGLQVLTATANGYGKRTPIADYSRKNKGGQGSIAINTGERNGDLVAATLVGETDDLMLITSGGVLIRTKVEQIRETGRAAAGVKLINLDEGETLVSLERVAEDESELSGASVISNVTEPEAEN
Sequence (P22118 whole entry partner): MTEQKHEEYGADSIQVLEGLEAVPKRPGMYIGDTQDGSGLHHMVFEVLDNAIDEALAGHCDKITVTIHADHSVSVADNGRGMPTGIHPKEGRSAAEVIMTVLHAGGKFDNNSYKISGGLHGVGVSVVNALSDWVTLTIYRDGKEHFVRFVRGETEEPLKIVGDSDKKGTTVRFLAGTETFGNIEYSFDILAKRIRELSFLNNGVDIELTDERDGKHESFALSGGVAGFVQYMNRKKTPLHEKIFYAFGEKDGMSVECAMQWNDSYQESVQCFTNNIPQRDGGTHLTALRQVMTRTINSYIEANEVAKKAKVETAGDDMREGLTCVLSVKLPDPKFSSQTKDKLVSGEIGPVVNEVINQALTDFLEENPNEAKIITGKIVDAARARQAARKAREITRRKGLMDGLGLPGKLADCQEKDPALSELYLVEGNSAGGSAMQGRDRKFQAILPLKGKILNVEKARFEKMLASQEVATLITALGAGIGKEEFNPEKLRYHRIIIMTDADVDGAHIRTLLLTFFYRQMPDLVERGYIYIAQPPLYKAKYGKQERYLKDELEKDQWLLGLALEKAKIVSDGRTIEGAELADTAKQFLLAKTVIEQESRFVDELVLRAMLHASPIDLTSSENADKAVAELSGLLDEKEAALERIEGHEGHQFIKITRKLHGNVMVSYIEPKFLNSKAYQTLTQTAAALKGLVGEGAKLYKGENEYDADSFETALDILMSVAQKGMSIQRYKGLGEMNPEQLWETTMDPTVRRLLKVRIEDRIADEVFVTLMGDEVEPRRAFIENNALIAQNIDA
Test: DNA cleavage assay, WT gyrase
Conditions: Mg2+, no ATP, read-out: CC50, single-stranded DNA cleavage
observation_type: pEC50
One number for each entry, as −log10 of the molar value.

// query pEC50 value for entry O=c1ccc2ncc(=O)n3c2n1C[C@H]3CN1CCC(NCc2cc3c(cn2)OCCC3)CC1
// result 6.05

---

Molecular target: WT N. gonorrhoeae topoisomerase IV (Neisseria gonorrhoeae, UniProt P48374)
Sequence (P48374 1-768): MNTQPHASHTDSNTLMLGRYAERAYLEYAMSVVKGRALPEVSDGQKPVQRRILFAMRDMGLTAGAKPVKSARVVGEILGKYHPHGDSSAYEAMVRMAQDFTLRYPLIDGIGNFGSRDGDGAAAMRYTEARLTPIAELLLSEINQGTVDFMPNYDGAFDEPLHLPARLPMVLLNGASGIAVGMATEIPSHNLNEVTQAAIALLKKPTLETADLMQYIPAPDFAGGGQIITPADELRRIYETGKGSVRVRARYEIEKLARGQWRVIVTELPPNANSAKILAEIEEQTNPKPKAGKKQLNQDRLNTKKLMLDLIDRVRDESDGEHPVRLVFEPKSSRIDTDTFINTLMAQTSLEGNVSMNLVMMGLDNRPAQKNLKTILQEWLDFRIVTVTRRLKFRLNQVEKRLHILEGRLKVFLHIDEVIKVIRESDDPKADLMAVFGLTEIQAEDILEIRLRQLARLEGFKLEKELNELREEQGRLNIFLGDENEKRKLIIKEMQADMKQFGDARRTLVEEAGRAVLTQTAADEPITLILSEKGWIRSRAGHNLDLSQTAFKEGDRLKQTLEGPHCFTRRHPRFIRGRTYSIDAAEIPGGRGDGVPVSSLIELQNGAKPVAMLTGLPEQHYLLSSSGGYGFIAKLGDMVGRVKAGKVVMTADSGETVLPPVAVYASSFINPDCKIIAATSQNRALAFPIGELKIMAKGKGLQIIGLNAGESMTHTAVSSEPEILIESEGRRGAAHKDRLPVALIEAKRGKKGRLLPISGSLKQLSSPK
Assay: biochemical
observation_type: EC50 (nM)
Answers are plain numbers, in nM.

// query EC50 value for entry O=c1ccc2ncc(=O)n3c2n1C[C@H]3CN1CCC(NCc2cc3c(cn2)OCCC3)CC1
// result 600
